protocol notes: amyloid nucleation score (Sup35N fusion, yeast selection) (log enrichment); library NNK3; higher = more nucleation; inactive = no reads after selection;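 also: zero at mode of non-aggregating sequences after 7 days selection at 30°C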
assay metric: amyloid nucleation score

Examples from the recorded data:
NFKNMEWFLST
inactive
GKFVRLPPISRISHLWNCEL
inactive
HLAHLSRSLSVKSSSVMKGH
inactive
MICSLTSHRKRN
inactive
LVEMKALRTD
inactive
EAPRFCSRAMDYVILQGWTL
inactive

In: Value lookup for amyloid nucleation score; key = ERRIDG
Out: 1.23

In: Could you do the same for IATLEDFMFPLFWYCIYLTN , please?
Out: inactive

In: Okay, and NCLLTFDQNYTRGIPAKI ?
Out: inactive

----------
protocol notes: amyloid nucleation score (Sup35N fusion, yeast selection) (log enrichment); library NNK2; higher = more nucleation; inactive = no reads after selection
assay metric: amyloid nucleation score
Returns: the value as a bare number; no unit string appended.

FREVRRF
0.631
TSIMPDSFFRSLKVSF
-0.249
MLCRMSAFRLGMRYDTRFLL
-0.064

In: State the recorded amyloid nucleation score for this entry: EDIGSVMGVSRAFCWQRAIC
Out: -0.666

In: Then what about the substance TNQGFLWVSPLILTRCGDRQ ?
Out: 6.68

In: Moving on to NMNLVILDTHN
Out: 2.86

In: Okay, and SSFVNRWCEHYNGVVVSWLL ?
Out: 0.236

In: Moving on to the next substance: HASTEIGSWL
Out: 0.552

In: Another substance: KSIRAYYYVSRQ
Out: 0.263

----------
protocol notes: amyloid nucleation score (Sup35N fusion, yeast selection) (log enrichment); library NNK2; higher = more nucleation; inactive = no reads after selection
Output criterion met for amyloid nucleation score not less than -0.3; output criterion not met otherwise.

As a guide, the following entries are already answered.
ISFYFSAWDKTVQTRRYIDH
criterion not met
KSIESGRIRK
criterion met

In: Exam item: decide whether the reported amyloid nucleation score for SRHVLSKRFRWYT is at least -0.3.
Out: criterion met

In: Similarly, MKAHVVVTLSCRYNLYGAPH ?
Out: criterion met

----------
Parameter amyloid nucleation score: see the listing below.
protocol notes: amyloid nucleation score (Sup35N fusion, yeast selection) (log enrichment); library NNK1; higher = more nucleation; inactive = no reads after selection
# answer = number (no unit)

Please review the following examples before continuing.
CLFLLNVGLSLLIGLPRYMW
0.552
HSYTRIE
-0.413
DTKIDACIRNSLHGWSRMAR
0.181

In: Quick one: amyloid nucleation score of VKQTGLVARMRWVTGLARDG ?
Out: -0.921

In: Now this one: ELSVNMSRDLSVTGLVQGRR
Out: 0.794

In: Request: SCNHKNSRSHLALQS
Out: 1.6

In: Then what about the substance RILCHLTNRWFEFDEVLVGV ?
Out: 0.835

In: Thanks! And VSSLWFKDYQYVFDDCYAKP ?
Out: -0.258

In: Proceed to FGKFKRRRGMSKMNRMEITK
Out: -0.841

In: Subsequent entry: GIKCTRFWQVPNRGDRV
Out: -0.813

----------
protocol notes: amyloid nucleation score (Sup35N fusion, yeast selection) (log enrichment); library NNK2; higher = more nucleation; inactive = no reads after selection
Label condition met when amyloid nucleation score is at or above 0.2; anything below gets condition not met.

See these solved cases before continuing.
EESYLSHGL
condition met
LAGLYGNFCISRCSVANQMV
condition met

In: Say whether VLWLADLSR shows amyloid nucleation score of 0.2 or more.
Out: condition not met

In: Same read-out for RTSFRNVMTIMTSPHVVTFI ?
Out: condition not met

In: Cool, now VWYFIDFGPRKISVITWRYS
Out: condition not met

In: Please do the same for SSGGIDQFGRESISHHWLC as well.
Out: condition not met

In: Check CMDYHICHIM too.
Out: condition met

In: Could you do the same for VQVVLNSETSSCASLRCMTY , please?
Out: condition met

In: Follow-up item: EKGNVGSQANTLVRCSGLTW
Out: condition met

In: Now the substance LNFGMY
Out: condition not met

In: Queued: RNQNLLWNVSGIAFNKMRRK
Out: condition met

In: Moving on to KSASRYNRQWNRHSYWMANR
Out: condition not met

In: What do you get for MFVYADFSHILEKRGHTGNR ?
Out: condition met

In: Follow-up item: TVMGPVILTCVGIAVTSASS
Out: condition met

In: Entry EGYAGVVQMALFYSWANIRL please
Out: condition not met

----------
protocol notes: amyloid nucleation score (Sup35N fusion, yeast selection) (log enrichment); library NNK3; higher = more nucleation; inactive = no reads after selection
assay metric: amyloid nucleation score

Illustrative cases are given below, each with its answer.
DKDRVVSCMMTLLLSVGCAV
inactive
LFVCRLMENLEGY
inactive
LLGRKRA
inactive
DFSSWSFYHYPLVGQSSYTS
inactive
GSSWCLTLWLKNSLATVQTQ
inactive

In: For the substance shown here, FWNVLWATRLYFFSFYDITS , give the reported amyloid nucleation score.
Out: inactive

In: Param item: GALMCPPRLVS
Out: inactive

In: Now this one: AAPKGGYPVLCCSVRTGRN
Out: 0.804

In: Entry to check: DCIYRDVCFNFTYMCKVNAQ
Out: inactive

----------
protocol notes: amyloid nucleation score (Sup35N fusion, yeast selection) (log enrichment); library NNK1; higher = more nucleation; inactive = no reads after selection
Below: a set of entries, each annotated with reported amyloid nucleation score.
Response field accepts a number only; no unit should be typed.

# example entries with known answers
NLLYTY
1
ELTCWSGDGGVGGILVNVWT
0.565
TGLPFYEEIMRTPHM
-0.766
VFHNYFLRTYTNRRARSVSI
2.86
VGFVLFLANSERYCDRISFG
-0.13

In: Recorded amyloid nucleation score for LIFRRGTALFVLPVARYRCA , please?
Out: -1.57

In: Subsequent entry: IKHFGISTR
Out: 0.17

In: Moving on to the next substance: MKRDSFPLFNFCLA
Out: 0.137

In: // next record CTARLIA
Out: 0.13

In: Do the same for TILGVITKIVQTLLWMPWVA please
Out: -1.37

In: Entry to check: LALPIFAFER
Out: -0.839

----------
protocol notes: amyloid nucleation score (Sup35N fusion, yeast selection) (log enrichment); library NNK1; higher = more nucleation; inactive = no reads after selection
Everything with amyloid nucleation score lower than 0.2 is no; everything else, including exactly 0.2, is yes.

YFFCVFI
yes

In: Kindly determine if amyloid nucleation score recorded for SVDLVMEYSCDGNTLDFRSL is above or exactly 0.2.
Out: no

In: Another substance: MQWWVGYAIITEN
Out: no

In: Ok, now KYLPPQVSSGWI
Out: yes

In: What do we get for MTWIENKPLHNVRCRGIIAV ?
Out: no

In: Query VVWEQSIDVILGYMGLGPD next
Out: yes

In: Okay, and CYGFCNCQYSESSKLLFDAL ?
Out: no

In: Another substance to check: SFYLFCPNCGRWTVFGEYS
Out: no

In: Now try RLNWVYSRNNASLSGVYMKR .
Out: no

In: Would you kindly repeat that for CRDNCCPLVVYW ?
Out: yes

In: Moving on to the next substance: RLNNRRFLSWRCTNNQCWRV
Out: no

In: Continue with VYFRCTWAISMFFYMSNAGW
Out: yes

In: // next record TITDNSPNKTMIEVEEIRL
Out: no

In: Same lookup for IKISHACATMRQSGGFYVLK , please.
Out: no

In: Do the same for FSYCAFHIMNQWVVFNYGGC please
Out: yes

In: // same read-out, input: LTSRNYESIY
Out: no

----------
protocol notes: amyloid nucleation score (Sup35N fusion, yeast selection) (log enrichment); library NNK2; higher = more nucleation; inactive = no reads after selection
# amyloid nucleation score per record follows
When you answer, write just the number.

Here is how some substances turned out for amyloid nucleation score.
SNVSVYPTMWGRVVHRPYTW
0.032
HFPHGHDFVFTVCYDTHSCL
0.729
THFPLHV
-0.388
LCISCNVGLGSIKVRNNAFA
6.12
LAQVFIIEAPFMTKFLPMLR
2.81
WRDSVDTGISSGKVGGRCSE
-0.047
RSSRVEYSCLDGRMRELRGS
-0.443

Read the next record carefully.
In: # input substance: GYMYCISATCRDLSKGRTGT ; wanted: its amyloid nucleation score
Out: -0.221

----------
protocol notes: amyloid nucleation score (Sup35N fusion, yeast selection) (log enrichment); library NNK3; higher = more nucleation; inactive = no reads after selection
assay metric: amyloid nucleation score

See these solved cases before continuing.
RSDMTAHDTNDAVQLEPSVE
inactive
WAPLQALSFGK
inactive
LLKLNS
inactive
SKCDMCTYTQRFNDL
inactive
EFMIIMYSHSLCVLQAVQLV
inactive

In: Reported amyloid nucleation score for DGDFIWISYVRKPKVNNDMF : what is it?
Out: inactive

In: Now the substance CKRLPIACLTSLTKAR
Out: inactive

In: How about this substance: WMFRSAVFYGYVYALGCMRS
Out: 0.924

In: Note, next up: YLGFFTAYA
Out: inactive

In: Okay, and VWIRRTCDFNQYRESDLLIR ?
Out: inactive

In: GWGIICFAKY ?
Out: inactive

In: And what about the substance ILPDLRTFPWSPVVIVHSR ?
Out: inactive

In: // query: DTPMESGTGATHLVRIVHSA
Out: inactive

In: Repeat with SDYENTRTNDNDHICVLSVG
Out: inactive

In: Same lookup for RDDFYLNFNFNFVRHGTRDS , please.
Out: 1.26

In: Continue with WDSWESYFASHHSF
Out: inactive

In: // query: CDHFQWYFLDRCLSVRCMIF
Out: 0.054
